Exercise: state measured log10(MIC) for each of the compounds provided.
System: Magnaporthe grisea f. sp. oryzae
TEST: microbe, parasite or virus in culture
Assay type: cell-based
CONDITION: Pyricularia oryzae, read-out: MIC (Minimum Inhibitory Concentration) PYRIOR, Table II; total inhibition of mycelial growth, V8 juice nutrient solution, 6-12 days at 18-25°C, visual inspection
Please note: log10 values; quantity MIC; unit µg/mL.

Value of measured log10(MIC) for the entry CN1C=C(c2c(-c3c(F)cc(F)cc3F)c(Cl)nc3ncnn23)CCC1 [Example 6] : -0.11

Value of measured log10(MIC) for the entry Fc1cccc(Cl)c1-c1c(Cl)nc2ncnn2c1CCC(F)(F)F [Example 32] : -0.70

Value of measured log10(MIC) for the entry CCCc1c(-c2c(F)cccc2Cl)c(Cl)nc2ncnn12 [Example 25] : -1.00

Value of measured log10(MIC) for the entry Cc1cccc(-c2c(-c3c(F)cccc3Cl)c(Cl)nc3ncnn23)c1 [Example 34] : -0.11

Value of measured log10(MIC) for the entry Cc1ccccc1-c1c(-c2c(F)cccc2Cl)c(Cl)nc2ncnn12 [Example 35] : -0.11

Value of measured log10(MIC) for the entry COc1cc(F)c(-c2c(Cl)nc3ncnn3c2C2CCC(OC(C)=O)CC2)c(F)c1 (stereo not shown) [Example 85] : -0.11

Value of measured log10(MIC) for the entry Clc1ccccc1-c1c(Cl)nc2ncnn2c1C1CCCCC1 [Example 43] : -0.41

Value of measured log10(MIC) for the entry CCCCc1c(-c2c(F)cccc2F)c(Cl)nc2ncnn12 [Example 22] : -1.00

Value of measured log10(MIC) for the entry Cc1cccc(C)c1-c1c(-c2c(F)cccc2Cl)c(Cl)nc2ncnn12 [Example 33] : 1.10

Value of measured log10(MIC) for the entry COc1nc2ncnn2c(C2CCCCC2)c1-c1c(F)cccc1Cl [Example 38] : -0.11

Value of measured log10(MIC) for the entry CCCCc1c(-c2ccccc2)c(Cl)nc2ncnn12 [Example 23] : 1.40

Value of measured log10(MIC) for the entry COc1cc(F)c(-c2c(Cl)nc3ncnn3c2C2CCCC2)c(F)c1 [Example 97] : -1.00

Value of measured log10(MIC) for the entry Fc1ccc(-c2c(-c3c(F)cccc3Cl)c(Cl)nc3ncnn23)cc1 [Example 41] : -1.00

Value of measured log10(MIC) for the entry CCC(C)c1c(-c2c(F)cccc2Cl)c(Cl)nc2ncnn12 (stereo not shown) [Example 28] : 0.19

* * *

Exercise: state measured MIC for each of the molecules provided.
Test system: Monilina fructigena
TEST: microbe, parasite or virus in culture
Assay type: cell-based
CONDITION: read-out: MIC (Minimum Inhibitory Concentration) MONIFG
Provide the reading as a plain figure in µg/mL.

Value of measured MIC for the entry CCCCCc1c(-c2c(F)cccc2Cl)c(Cl)nc2ncnn12 [Example 18] : 3.13

Value of measured MIC for the entry Fc1cccc(Cl)c1-c1c(Cl)nc2ncnn2c1C1CCCO1 (stereo not shown) [Example 11] : 3.13

Value of measured MIC for the entry CCCCc1c(-c2c(F)cccc2Cl)c(Cl)nc2ncnn12 [Example 17] : 3.13

* * *

Test system: Phytophthora infestans
TEST: microbe, parasite or virus in culture
Type: cell-based
CONDITION: read-out: MIC (Minimum Inhibitory Concentration) PHYTIN
Exercise: state measured MIC for each of the compounds provided.

Value of measured MIC for the entry COc1nc2ncnn2c([C@H]2CC[C@@H](F)CC2)c1-c1c(F)cc(F)cc1F : > 100 µg/mL

Value of measured MIC for the entry CCCCc1c(-c2ccccc2C)c(Cl)nc2ncnn12 : 50 µg/mL

Value of measured MIC for the entry Fc1cc(F)c(-c2c(Cl)nc3ncnn3c2[C@H]2CC[C@@H](F)CC2)c(F)c1 : > 100 µg/mL

Value of measured MIC for the entry [N-]=[N+]=Nc1nc2ncnn2c(C2CCCCC2)c1-c1c(F)cccc1Cl : > 100 µg/mL

Value of measured MIC for the entry CN1C=C(c2c(-c3c(F)cc(F)cc3F)c(Cl)nc3ncnn23)CCC1 : > 100 µg/mL

Value of measured MIC for the entry COc1cc(F)c(-c2c(Cl)nc3ncnn3c2C2CCC(OC(C)=O)CC2)c(F)c1 (centres unmarked) : 25 µg/mL

Value of measured MIC for the entry Clc1ccccc1-c1c(Cl)nc2ncnn2c1C1CCCCC1 : > 100 µg/mL

Value of measured MIC for the entry COc1cc(F)c(-c2c(OC)nc3ncnn3c2CC(C)C)c(F)c1 : > 100 µg/mL

Value of measured MIC for the entry CCCCc1c(-c2ccccc2)c(Cl)nc2ncnn12 : 50 µg/mL

Value of measured MIC for the entry Fc1ccc(-c2c(-c3c(F)cccc3Cl)c(Cl)nc3ncnn23)cc1 : > 100 µg/mL

Value of measured MIC for the entry COc1cc(F)c(-c2c(Cl)nc3ncnn3c2CC(C)C)c(F)c1 : > 100 µg/mL

* * *

Exercise: state measured MIC for each of the compounds provided.
Test system: Phytophthora infestans
TEST: microbe, parasite or virus in culture
Format: cell-based
CONDITION: read-out: MIC (Minimum Inhibitory Concentration) PHYTIN

Value of measured MIC for the entry CCCc1c(-c2c(F)cccc2Cl)c(Cl)nc2ncnn12 : 12.5 µg/mL

Value of measured MIC for the entry CCCc1c(-c2c(F)cc(OC)cc2F)c(OC)nc2ncnn12 : > 100 µg/mL

Value of measured MIC for the entry CC(C)c1c(-c2c(F)cccc2Cl)c(Cl)nc2ncnn12 : > 100 µg/mL

Value of measured MIC for the entry Cc1cccc(-c2c(-c3c(F)cccc3Cl)c(Cl)nc3ncnn23)c1 : 50 µg/mL

Value of measured MIC for the entry CC1CCC(c2c(-c3c(F)cccc3Cl)c(Cl)nc3ncnn23)CC1 (centres unmarked) : > 100 µg/mL

Value of measured MIC for the entry Cc1cccc(C)c1-c1c(-c2c(F)cccc2Cl)c(Cl)nc2ncnn12 : 6.25 µg/mL

Value of measured MIC for the entry Fc1cccc(Cl)c1-c1c(F)nc2ncnn2c1C1CCCCC1 : > 100 µg/mL

Value of measured MIC for the entry CCc1c(-c2c(F)cccc2Cl)c(Cl)nc2ncnn12 : > 100 µg/mL

Value of measured MIC for the entry COc1cc(F)c(-c2c(Cl)nc3ncnn3c2C2CC=CCC2)c(F)c1 (centres unmarked) : > 100 µg/mL

Value of measured MIC for the entry Fc1cccc(Cl)c1-c1c(Cl)nc2ncnn2c1CCC(F)(F)F : 50 µg/mL

Value of measured MIC for the entry CCC(C)c1c(-c2c(F)cccc2Cl)c(Cl)nc2ncnn12 (centres unmarked) : > 100 µg/mL

Value of measured MIC for the entry CCCCc1c(-c2c(F)cc(OC)cc2F)c(Cl)nc2ncnn12 : > 100 µg/mL

Value of measured MIC for the entry Fc1cc(F)c(-c2c(Cl)nc3ncnn3c2C2CCCCC2)c(F)c1 : > 100 µg/mL

Value of measured MIC for the entry Fc1cccc(F)c1-c1c(Cl)nc2ncnn2c1C1CCCCC1 : > 100 µg/mL

Value of measured MIC for the entry CCCCc1c(-c2c(F)cccc2F)c(Cl)nc2ncnn12 : > 100 µg/mL

Value of measured MIC for the entry CC(=O)OC1CCC(c2c(-c3c(F)cc(F)cc3F)c(Cl)nc3ncnn23)CC1 (centres unmarked) : > 100 µg/mL

Value of measured MIC for the entry CCCCCCc1c(-c2c(F)cccc2Cl)c(Cl)nc2ncnn12 : 100 µg/mL

Value of measured MIC for the entry CCCc1c(-c2c(F)cc(OC)cc2F)c(Cl)nc2ncnn12 : 100 µg/mL

Value of measured MIC for the entry COc1nc2ncnn2c(C2CCCCC2)c1-c1c(F)cc(F)cc1F : > 100 µg/mL

Value of measured MIC for the entry O=C1CCCC(=O)C1c1c(-c2c(F)cccc2Cl)c(Cl)nc2ncnn12 : 12.5 µg/mL

Value of measured MIC for the entry COc1cc(F)c(-c2c(OC)nc3ncnn3c2C2CCCC2)c(F)c1 : > 100 µg/mL

Value of measured MIC for the entry COc1nc2ncnn2c(C2CCCCC2)c1-c1ccccc1F : > 100 µg/mL

Value of measured MIC for the entry Fc1cccc(Cl)c1-c1c(Cl)nc2ncnn2c1C1CCCCC1 : > 100 µg/mL

Value of measured MIC for the entry COc1cc(F)c(-c2c(OC)nc3ncnn3c2C2CCCCC2)c(F)c1 : > 100 µg/mL

Value of measured MIC for the entry Fc1cccc(Cl)c1-c1c(Cl)nc2ncnn2c1C1CCCC1 : > 100 µg/mL

Value of measured MIC for the entry Cc1ccccc1-c1c(-c2c(F)cccc2Cl)c(Cl)nc2ncnn12 : 25 µg/mL

Value of measured MIC for the entry CCCCc1c(-c2ccccc2F)c(Cl)nc2ncnn12 : 100 µg/mL

Value of measured MIC for the entry COc1cc(F)c(-c2c(OC)nc3ncnn3c2[C@H]2CC[C@@H](F)CC2)c(F)c1 : > 100 µg/mL

Value of measured MIC for the entry CC(C)Cc1c(-c2c(F)cccc2Cl)c(Cl)nc2ncnn12 : > 100 µg/mL

Value of measured MIC for the entry COc1nc2ncnn2c(C2CCCCC2)c1-c1c(F)cccc1Cl : > 100 µg/mL

Value of measured MIC for the entry Fc1ccccc1-c1c(Cl)nc2ncnn2c1C1CCCCC1 : > 100 µg/mL

Value of measured MIC for the entry COc1nc2ncnn2c(C2CCCCC2)c1-c1c(F)cccc1F : > 100 µg/mL

Value of measured MIC for the entry COc1cc(F)c(-c2c(Cl)nc3ncnn3c2C2CCCCC2)c(F)c1 : > 100 µg/mL

Value of measured MIC for the entry CCCCc1c(-c2ccccc2Cl)c(Cl)nc2ncnn12 : > 100 µg/mL

Value of measured MIC for the entry COc1cc(F)c(-c2c(Cl)nc3ncnn3c2C2CCCC2)c(F)c1 : > 100 µg/mL

Value of measured MIC for the entry COc1cc(F)c(-c2c(Cl)nc3ncnn3c2[C@H]2CC[C@@H](F)CC2)c(F)c1 : > 100 µg/mL

Value of measured MIC for the entry COc1cc(F)c(-c2c(Cl)nc3ncnn3c2C2CCCO2)c(F)c1 (centres unmarked) : 100 µg/mL

Value of measured MIC for the entry Fc1c(F)c(F)c(-c2c(Cl)nc3ncnn3c2C2CCCCC2)c(F)c1F : > 100 µg/mL
